Catalogue of inhibition of growth at 1 µg/mL readings, one per entry.
Tested on: Francisella tularensis
Protocol Notes: Antibacterial activity against Francisella tularensis LVS at 1 ug/ml by Microplate Alamar Blue assay
Assay type: functional
Reported Conditions: read-out: GI

inhibition of growth at 1 µg/mL reading for CCN(CC)c1cc2[nH]c(-c3ccccc3OC)nc2cc1NC(=O)c1ccccc1OC : > 90%

inhibition of growth at 1 µg/mL reading for CCOC(=O)Nc1cc(NC(=O)c2ccc(F)cc2)c2[nH]c(-c3ccco3)nc2c1 : > 90%

inhibition of growth at 1 µg/mL reading for CCOC(=O)Nc1cc(NC(=O)c2ccccc2OC)c2[nH]c(-c3ccc(Br)cc3)nc2c1 : > 90%

inhibition of growth at 1 µg/mL reading for CCOC(=O)Nc1cc(NC(=O)c2ccccc2)c2[nH]c(-c3ccc(Br)cc3)nc2c1 : > 90%

inhibition of growth at 1 µg/mL reading for CCN(CC)c1cc2[nH]c(-c3ccc(C)cc3)nc2cc1NC(=O)C1CCC1 : > 90%
